system: RXF 393 renal; test: NCI-60 one-dose screen, 48 h; details: 10 µM unless noted
This is part of a sample that, as a whole, favours compounds with a hit. Of some 83,000 tested, about 20% had one in any assay. Active and inactive are the calls of the source. How the source made its calls: active means growth percent below 10; inactive means the rest.
Outcomes: y = active, n = inactive

> print(dat)
                                   molecule         system  label.class
1  CN(C)c1ncc(/C=C2\SC(=S)N(Cc3ccccc3Cl)C2=O)s1  RXF 393 renal            n
2  O=C1c2c(c3c4cc(Br)ccc4[nH]c3c3ccc4ccccc4c23)C(=O)N1CCN1CCCCC1  RXF 393 renal            n
3  COc1ccc(NC(=O)[C@H](C)N)cc1C(=O)Nc1cccc(-c2cc(=O)c3c(OC)c(OC)c(OC)cc3o2)c1  RXF 393 renal            n
4  O=S(=O)(NC1CC2CCC1C2)c1ccc2c(c1)C(=NO)c1cc(S(=O)(=O)NC3CC4CCC3C4)ccc1-2 (configuration not stated)  RXF 393 renal            y
5  CC1COc2c(N3CCN(C)CC3)c(F)cc3c(=O)c(C(=O)N/N=C/c4cc[nH]c4)cn1c23 (configuration not stated)  RXF 393 renal            n
6          CC(=O)Oc1ccc(CCN2C(=O)CSC2=S)cc1  RXF 393 renal            n
7  C=C(C)C(=O)O[C@H]1C[C@@]2(C)OC(=CC2=O)[C@H](C)[C@H](O)[C@H]2OC(=O)C(=C)[C@@H]21  RXF 393 renal            n
